property_name: melting point (°C)
All answers are understood in °C, so give the number only.

As a guide, the following entries are already answered.
substance_smiles	readout_value
Cc1cccc(N2CCN(C(=O)CN3C(=O)c4cccc(NC(=O)c5ccc(Cl)s5)c4C3=O)CC2)c1	136
O=C(Nc1cccc2c1C(=O)N(CC(=O)N1CCN(c3ccccn3)CC1)C2=O)c1ccc(Cl)s1	203
O=C(Nc1cccc2c1C(=O)N(CC(=O)N1CCN(c3ncnc4sccc34)CC1)C2=O)c1ccc(Cl)s1	277

Look up melting point of O=C(Nc1cccc2c1C(=O)N(CC(=O)N1CCC(NCc3cccnc3)CC1)C2=O)c1ccc(Cl)s1 and report it. 220

Look up melting point of CN(C)C(=O)CN1CCN(C(=O)CN2C(=O)c3cccc(NC(=O)c4ccc(Cl)s4)c3C2=O)CC1 and report it. 189

Look up melting point of N#Cc1nccnc1N1CCN(C(=O)CN2C(=O)c3cccc(NC(=O)c4ccc(Cl)s4)c3C2=O)CC1 and report it. 242

Look up melting point of Nc1cnccc1N1CCN(C(=O)CN2C(=O)c3cccc(NC(=O)c4ccc(Cl)s4)c3C2=O)CC1 and report it. 178

Look up melting point of O=C(Nc1cccc2c1C(=O)N(CC(=O)N1CCN(c3cccc4[nH]ccc34)CC1)C2=O)c1ccc(Cl)s1 and report it. 209

Look up melting point of O=C(Nc1cccc2c1C(=O)N(CC(=O)N1CCN(c3ccc4c(c3)OCO4)CC1)C2=O)c1ccc(Cl)s1 and report it. 203

###

Counter-ions that a name gives are not always drawn.
property_name: melting point (°C)
All answers are understood in °C, so give the number only.

As a guide, the following entries are already answered.
compound	property_name	u	readout_value
O=C(Nc1cccc2c1C(=O)N(CC(=O)N1CCN(CC(=O)N3CCCC3)CC1)C2=O)c1ccc(Cl)s1	melting point	°C	122
COCCN1CCN(C(=O)CN2C(=O)c3cccc(NC(=O)c4ccc(Cl)s4)c3C2=O)CC1	melting point	°C	158
O=C(Nc1cccc2c1C(=O)N(CC(=O)N1CCN(c3cnccn3)CC1)C2=O)c1ccc(Cl)s1	melting point	°C	237
O=C(Nc1cccc2c1C(=O)N(CC(=O)N1CCN(CC(=O)N3CCOCC3)CC1)C2=O)c1ccc(Cl)s1	melting point	°C	230
O=C(Nc1cccc2c1C(=O)N(CCC(=O)N1CCN(c3ccncc3)CC1)C2)c1ccc(Cl)s1 (as salt: TFA)	melting point	°C	118

Let us move to another entry and its melting point.
Look up melting point of Cc1cccc(N2CCN(C(=O)CN3C(=O)c4cccc(NC(=O)c5ccc(Cl)s5)c4C3=O)CC2)n1 and report it. 241

###

Assign T whenever melting point does not fall below 200 °C; assign F whenever it does.

Consider the following illustrative entries.
compound	group
O=C(Nc1cccc2c1C(=O)N(CC(=O)N1CCC(CO)CC1)C2O)c1ccc(Cl)s1 (stereo not drawn)	T
CC(C)NC(=O)CN1CCN(C(=O)CN2C(=O)c3cccc(NC(=O)c4ccc(Cl)s4)c3C2=O)CC1	F
O=C(Nc1cccc2c1C(=O)N(CCC(=O)N1CCN(c3ccncc3)CC1)C2=O)c1ccc(Cl)s1	F
O=C(CN1C(=O)c2cccc(NC(=O)c3ccc(Cl)s3)c2C1=O)NCC1CCN(c2ccncc2)CC1	T
O=C(Nc1cccc2c1C(=O)N(C1CCN(c3ccncc3)CC1)C2=O)c1ccc(Cl)s1	T
O=C(Nc1cccc2c1C(=O)N(CC(=O)N1CCN(CCCN3CCCCC3)CC1)C2=O)c1ccc(Cl)s1	F

Entry O=C(Nc1cccc2c1CN(CC(=O)N1CCC(CO)CC1)C2=O)c1ccc(Cl)s1 : is its melting point no less than 200 °C? T
